- Tested on: HMPV clinical isolate TN/1501/A1
- EXPERIMENTAL_DETAILS: HMPV antiviral assay Method-B (clinical isolate TN/1501/A1 in LLC-MK2 cells, ATP-Lite readout)
- Assay type: cell-based, Human metapneumovirus (HMPV)
- MEASUREMENT_SETUP: human metapneumovirus, LLC-MK2, 144 h, hMPV WT1501 (clinical isolate TN/1501/A1), 6 days
- Description: In vitro HMPV antiviral activity was evaluated using the clinical isolate TN/1501/A1 and LLC-MK2 cells (ATCC #CCL-7), an immortalized kidney epithelial cell line from Macaca mulatta. […] The test compounds were assessed in duplicate at a top concentration of 10 μM followed by 3-fold serial dilutions to give a total of 10 concentration points. […] Cells were counted and seeded at a density of 5,000 cells/well, 12.5 μL/well. […]
QUANTITY_KIND: EC50

Here is how some molecules turned out for EC50.
COc1cc(C(=O)NC[C@](O)(c2cc3c(c(-c4ccc(F)cc4)n2)OC[C@]3(C)C(N)=O)C(F)(F)F)cc2cc(C(F)F)nnc12 [Example 1069] : > 500 nM
COc1cc(C(=O)NC[C@](O)(c2cc3c(c(-c4ccc(F)c(C(F)(F)F)c4)n2)OC[C@]3(C)C(N)=O)C2CC2)cc2cn(C3(F)CC3)nc12 [Example 651] : < 500 nM
COc1cc(C(=O)NC[C@](O)(c2cc3c(c(-c4ccc(F)cc4)n2)OC[C@]3(CF)C(N)=O)C2CC2)cc2cc(C3CC3)nn12 [Example 1060] : < 500 nM
COc1cc(C(=O)NC[C@](O)(c2cc3c(c(-c4ccc(F)c(Cl)c4)n2)OC[C@@]3(C(N)=O)C(F)F)C(F)(F)F)cc2cc(Cl)c(C)nc12 [Example 1005] : < 500 nM

input: Read off the recorded EC50 for COc1cc(C(=O)NC[C@](O)(c2cc3c(c(-c4cc(Cl)c(F)c(Cl)c4)n2)OC[C@]3(C)C(N)=O)C2CC2)cc2cn(C3(F)CC3)nc12 [Example 678]
output: < 500 nM
